Biological target: T1, TNFR1 (Homo sapiens, UniProt P19438)
T1 chain: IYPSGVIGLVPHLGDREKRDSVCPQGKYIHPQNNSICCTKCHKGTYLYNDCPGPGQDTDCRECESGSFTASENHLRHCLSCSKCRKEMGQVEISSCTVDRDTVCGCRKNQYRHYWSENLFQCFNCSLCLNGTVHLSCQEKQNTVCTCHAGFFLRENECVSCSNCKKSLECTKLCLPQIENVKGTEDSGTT
Assay: yeast display SC50
Where apparent Kd (screen) equals or exceeds 1 nM, the correct label is true; where it does not, the label is false.

INSERT INTO measurements (binder, assigned_label) VALUES
  ('S1S (designed binder) SMEEEVEKAAKEYEKKKKEAIEKHLEKLKAKDKEAAERFLKELEEAAKEYAKDEAKTMSEEEAKRRAKKYKEKVLLSELSEEEQKEIKEAEEKLVRTILKYVEEAAK', 'false'),
  ('E14Y (designed binder) SMEEEVEKAAKEYYKKKKEAIEKHLEKLKAKDKEAAERFLKELEEAAKEYAKDEAKTMSEEEAKRRAKKYKEKVLLSELSEEEQKEIKEAEEKLVRTILKYVEEAAK', 'true'),
  ('L94W (designed binder) SMEEEVEKAAKEYEKKKKEAIEKHLEKLKAKDKEAAERFLKELEEAAKEYAKDEAKTMSEEEAKRRAKKYKEKVLLSELSEEEQKEIKEAEEKWVRTILKYVEEAAK', 'false'),
  ('A67N (designed binder) SMEEEVEKAAKEYEKKKKEAIEKHLEKLKAKDKEAAERFLKELEEAAKEYAKDEAKTMSEEEAKRRNKKYKEKVLLSELSEEEQKEIKEAEEKLVRTILKYVEEAAK', 'true'),
  ('K56Y (designed binder) SMEEEVEKAAKEYEKKKKEAIEKHLEKLKAKDKEAAERFLKELEEAAKEYAKDEAYTMSEEEAKRRAKKYKEKVLLSELSEEEQKEIKEAEEKLVRTILKYVEEAAK', 'true'),
  ('E60T (designed binder) SMEEEVEKAAKEYEKKKKEAIEKHLEKLKAKDKEAAERFLKELEEAAKEYAKDEAKTMSTEEAKRRAKKYKEKVLLSELSEEEQKEIKEAEEKLVRTILKYVEEAAK', 'true'),
  ('A55W (designed binder) SMEEEVEKAAKEYEKKKKEAIEKHLEKLKAKDKEAAERFLKELEEAAKEYAKDEWKTMSEEEAKRRAKKYKEKVLLSELSEEEQKEIKEAEEKLVRTILKYVEEAAK', 'true'),
  ('E3Y (designed binder) SMYEEVEKAAKEYEKKKKEAIEKHLEKLKAKDKEAAERFLKELEEAAKEYAKDEAKTMSEEEAKRRAKKYKEKVLLSELSEEEQKEIKEAEEKLVRTILKYVEEAAK', 'true');
